- tested on: HLA-B*45:06
- assay remarks: IEDB peptide-MHC binding, purified MHC/competitive/fluorescence; filed as Kd, often an IC50 or EC50 that approximates it; bounds were set here for any values at or beyond the usual limits of such assays
- experimental context: source organism: Corynebacterium glutamicum ATCC 13032
quantity: Kd

Query: So what's the measured Kd for this one? RIFPATHYV
Response: ≥ 5 µM

----------
- tested on: HLA-A*02:12
- assay remarks: IEDB peptide-MHC binding, purified MHC/direct/fluorescence; filed as Kd, often an IC50 or EC50 that approximates it; bounds were set here for any values at or beyond the usual limits of such assays
- experimental context: source organism: Zaire ebolavirus
pKd: −log10 of the molar value.
Assign pKd to each entry below.

FLILPQAKK; ≤ 4.70

Now look at this entry.
Query: Can you look up pKd on HLA-A*02:12 for EAEKQLQQY ?
Response: ≤ 4.70

----------
- tested on: HLA-A*32:07
- assay remarks: IEDB peptide-MHC binding, purified MHC/competitive/fluorescence; filed as Kd, often an IC50 or EC50 that approximates it; bounds were set here for any values at or beyond the usual limits of such assays
- experimental context: source organism: Escherichia coli O139:H28 str. E24377A
quantity: pKd
Give bare numbers, as −log10 of the molar value.

Query: So what's the measured pKd for this one? REWGWRIPF
Response: 7.87

----------
- tested on: HLA-A*32:01
- assay remarks: IEDB peptide-MHC binding, purified MHC/competitive/radioactivity; filed as Kd, often an IC50 or EC50 that approximates it; bounds were set here for any values at or beyond the usual limits of such assays
- experimental context: source organism: Dengue virus 4 Philippines/H241/1956
quantity: Kd (µM)
Give bare numbers, in µM.

Query: So what's the measured Kd for this one? GTLALSLTF
Response: 1.37

----------
- tested on: HLA-A*01:01
- assay remarks: IEDB peptide-MHC binding, purified MHC/competitive/radioactivity; filed as Kd, often an IC50 or EC50 that approximates it; bounds were set here for any values at or beyond the usual limits of such assays
- experimental context: source organism: Dengue virus 3 Singapore/8120/1995
quantity: pKd
Numbers only, as −log10 of the molar value.

Query: So what's the measured pKd for this one? LTAAVLLLV
Response: 4.78

----------
- tested on: HLA-A*31:01
- assay remarks: IEDB peptide-MHC binding, purified MHC/direct/fluorescence; filed as Kd, often an IC50 or EC50 that approximates it; bounds were set here for any values at or beyond the usual limits of such assays
- experimental context: source organism: Influenza A virus (A/Switzerland/8808/2002(H1N1))
pKd: −log10 of the molar value.
quantity: pKd

Query: So what's the measured pKd for this one? VPAQNAIST
Response: ≤ 4.70

----------
- tested on: HLA-B*53:01
- assay remarks: IEDB peptide-MHC binding, purified MHC/competitive/radioactivity; filed as Kd, often an IC50 or EC50 that approximates it; bounds were set here for any values at or beyond the usual limits of such assays
- experimental context: source organism: Dengue virus 4 Dominica/814669/1981
quantity: pKd
Answers are plain numbers, as −log10 of the molar value.

Query: Can you look up pKd on HLA-B*53:01 for PPVSDLKYSW ?
Response: 5.80

----------
- tested on: HLA-B*57:01
- assay remarks: IEDB peptide-MHC binding, purified MHC/competitive/fluorescence; filed as Kd, often an IC50 or EC50 that approximates it; bounds were set here for any values at or beyond the usual limits of such assays
- experimental context: source organism: Entamoeba dispar SAW760
pKd: −log10 of the molar value.
quantity: pKd

Query: So what's the measured pKd for this one? KDGTLFYCY
Response: ≤ 4.70

----------
- tested on: HLA-A*02:03
- assay remarks: IEDB peptide-MHC binding, purified MHC/competitive/radioactivity; filed as Kd, often an IC50 or EC50 that approximates it; bounds were set here for any values at or beyond the usual limits of such assays
- experimental context: source organism: Homo sapiens
quantity: pKd
Answers are plain numbers, as −log10 of the molar value.

Query: Can you look up pKd on HLA-A*02:03 for EMKTQLEEL ?
Response: 7.09

----------
- tested on: HLA-A*26:01
- assay remarks: IEDB peptide-MHC binding, purified MHC/competitive/radioactivity; filed as Kd, often an IC50 or EC50 that approximates it; bounds were set here for any values at or beyond the usual limits of such assays
- experimental context: source organism: Dengue virus 3 Martinique/1243/1999
quantity: Kd (µM)
Numbers only, in µM.

DTAWDFGSV; 0.172
ETLLLLGLM; 0.133

Now look at this entry.
Query: Can you look up Kd on HLA-A*26:01 for ENPYKTWAY ?
Response: 2.95

----------
- tested on: HLA-B*45:01
- assay remarks: IEDB peptide-MHC binding, purified MHC/competitive/radioactivity; filed as Kd, often an IC50 or EC50 that approximates it; bounds were set here for any values at or beyond the usual limits of such assays
- experimental context: source organism: Mammarenavirus juninense
quantity: Kd

Query: So what's the measured Kd for this one? PDVLRSDVY
Response: ≥ 77.7 µM

----------
- tested on: HLA-A*02:11
- assay remarks: IEDB peptide-MHC binding, purified MHC/direct/fluorescence; filed as Kd, often an IC50 or EC50 that approximates it; bounds were set here for any values at or beyond the usual limits of such assays
- experimental context: source organism: Mycobacterium tuberculosis str. Haarlem
quantity: Kd (nM)
Numbers only, in nM.

Query: So what's the measured Kd for this one? SFYGYGFNV
Response: 10

----------
- tested on: HLA-C*08:02
- assay remarks: IEDB peptide-MHC binding, purified MHC/direct/fluorescence; filed as Kd, often an IC50 or EC50 that approximates it; bounds were set here for any values at or beyond the usual limits of such assays
- experimental context: source organism: Mycobacterium tuberculosis C
pKd: −log10 of the molar value.
quantity: pKd

Query: So what's the measured pKd for this one? YLPDPTVGV
Response: ≤ 4.70

----------
- tested on: HLA-B*57:01
- assay remarks: IEDB peptide-MHC binding, purified MHC/competitive/fluorescence; filed as Kd, often an IC50 or EC50 that approximates it; bounds were set here for any values at or beyond the usual limits of such assays
- experimental context: source organism: Vibrio parahaemolyticus AQ3810
pKd: −log10 of the molar value.
quantity: pKd

Query: So what's the measured pKd for this one? MLTNASGHA
Response: ≤ 4.70

----------
- tested on: HLA-A*02:03
- assay remarks: IEDB peptide-MHC binding, purified MHC/competitive/radioactivity; filed as Kd, often an IC50 or EC50 that approximates it; bounds were set here for any values at or beyond the usual limits of such assays
- experimental context: source organism: Vaccinia virus WR
Assign pKd to each entry below.
Numbers only, as −log10 of the molar value.

Study these solved cases before continuing.
DMLLNVQTLI; 6.79
PVETLFGSYI; 4.93
FTDCRTIDA; 5.57
HTNHSDISM; 5.38
KVFSFWLLCK; 5.47

Please state pKd for every sequence in the list that follows.
1. YLSGTDDEVI
2. AVIPFDDIV
3. RVLYDEFVT
4. DVIKSISSI
5. RTWKVLSIM
6. NTTTFITVLT

Response:
1: 6.68; 2: 6.62; 3: 5.85; 4: 5.12; 5: 5.58; 6: 6.22

----------
- tested on: HLA-B*40:01
- assay remarks: IEDB peptide-MHC binding, purified MHC/competitive/radioactivity; filed as Kd, often an IC50 or EC50 that approximates it; bounds were set here for any values at or beyond the usual limits of such assays
- experimental context: source organism: Mammarenavirus machupoense
Assign Kd to each entry below.

Study these solved cases before continuing.
NDNFLMRNV; ≥ 76.1 µM
KEINLLSQT; ≥ 34.1 µM

Query: So what's the measured Kd for this one? SDHLISEML
Response: ≥ 22.4 µM

----------
- tested on: HLA-A*02:02
- assay remarks: IEDB peptide-MHC binding, purified MHC/competitive/radioactivity; filed as Kd, often an IC50 or EC50 that approximates it; bounds were set here for any values at or beyond the usual limits of such assays
- experimental context: source organism: Vaccinia virus WR
pKd: −log10 of the molar value.
Recorded pKd determines the label; the label ranges are lower segment = under 6, middle segment = from 6 up to 7, upper segment = 7 and over

Reference set, count: 5
AMHDKKIDIL; middle segment
PVETLFGSYI; lower segment
KVFSFWLLCK; lower segment
IIMAINVFT; upper segment
SMSQELAEL; upper segment

Query: Form: Item = NVDIIDLLL ; Class = ?
Response: middle segment

Query: Form: Item = VTKSSSWKDV ; Class = ?
Response: lower segment

Query: Form: Item = IVDSMIIGHI ; Class = ?
Response: middle segment

----------
- tested on: HLA-A*03:01
- assay remarks: IEDB peptide-MHC binding, purified MHC/competitive/radioactivity; filed as Kd, often an IC50 or EC50 that approximates it; bounds were set here for any values at or beyond the usual limits of such assays
- experimental context: source organism: Vaccinia virus WR
Rule for this label: 1 means Kd is less than 2000 nM; -1 means Kd is at least 2000 nM.

Reference set, count: 8
IILARNEEGR; -1
PMVIENGILK; -1
CIFAFIDFSK; 1
SFKLILAEY; -1
LVKSYSLIR; -1
KLDDVEKEK; 1
ILKINSVKY; 1
CSKHMDARY; -1

Query: Hello, is Kd of the following sequence strictly smaller than 2000 nM? LFHGGEPIK
Response: 1

Query: Hello, is Kd of the following sequence strictly smaller than 2000 nM? SSTCSAVTDR
Response: -1

Query: Hello, is Kd of the following sequence strictly smaller than 2000 nM? ELGFNYPEY
Response: -1

Query: Hello, is Kd of the following sequence strictly smaller than 2000 nM? LFYTFAISY
Response: -1
